Multiple publications report pIC50 for UniProtKB Q08499; what follows is a combined list.
Sequence (Q08499 whole entry): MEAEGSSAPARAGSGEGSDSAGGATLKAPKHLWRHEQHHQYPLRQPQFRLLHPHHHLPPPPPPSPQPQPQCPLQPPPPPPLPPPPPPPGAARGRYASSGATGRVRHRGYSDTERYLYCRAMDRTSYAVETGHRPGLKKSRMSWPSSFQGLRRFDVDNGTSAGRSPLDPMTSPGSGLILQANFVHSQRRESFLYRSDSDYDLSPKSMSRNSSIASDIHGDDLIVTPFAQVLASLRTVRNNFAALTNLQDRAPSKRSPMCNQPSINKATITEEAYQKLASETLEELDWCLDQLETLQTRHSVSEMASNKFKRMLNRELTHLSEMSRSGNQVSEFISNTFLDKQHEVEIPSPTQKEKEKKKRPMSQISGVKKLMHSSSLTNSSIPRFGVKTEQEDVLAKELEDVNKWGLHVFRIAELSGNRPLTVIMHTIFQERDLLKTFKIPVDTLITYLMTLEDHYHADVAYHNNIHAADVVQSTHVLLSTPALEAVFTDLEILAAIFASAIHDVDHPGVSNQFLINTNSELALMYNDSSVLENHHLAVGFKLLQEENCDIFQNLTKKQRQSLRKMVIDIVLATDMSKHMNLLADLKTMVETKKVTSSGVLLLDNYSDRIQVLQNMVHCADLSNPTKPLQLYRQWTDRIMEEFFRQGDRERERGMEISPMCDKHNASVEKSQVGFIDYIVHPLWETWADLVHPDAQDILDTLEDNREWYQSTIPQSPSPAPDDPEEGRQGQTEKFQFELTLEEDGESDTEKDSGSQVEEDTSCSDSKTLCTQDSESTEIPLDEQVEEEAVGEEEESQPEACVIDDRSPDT
pIC50: −log10 of the molar value.
reported metric: pIC50

Cc1cc(C)n(C(=O)c2ccc(-c3ccc(F)cc3F)o2)n1
4.71
CC(C)OC(=O)N(Cc1cccc(-c2cc(C(C)(C)C#N)cc3cccnc23)c1)c1ccc(S(C)(=O)=O)cc1
9.52

I. O=[N+]([O-])c1cccc(-c2nc(-c3ccccc3)cc3cccnc23)c1
II. CC(C)Nc1nc2oc3c(NCCN4CCOCC4)ncnc3c2c2c1CCC(C)(C)C2
III. CC(C)NC(=O)N(Cc1cc(-c2cc(C(C)(C)S(C)(=O)=O)cc3cccnc23)ccc1Cl)c1ccc(S(C)(=O)=O)cc1
List by increasing pIC50. To answer, write out the labels according to the requested order.
III, I, II
